# TEST SUMMARY: Cytotoxicity against human SH-SY5Y cells assessed as cell viability at 10 uM measured after 24 hrs by MTT assay relative to control
# Assay type: cell-based
# APPLIED CONDITIONS: read-out: Activity
ASSAY READOUT: viability at 24 h, 10 µM (%)

MOLECULAR STRING | ASSAY READOUT | UNIT NAME | NUMERIC VALUE
CC(C)=CCC/C(C)=C/CC/C(C)=C/Cc1c(C)cc(O)cc1O | viability at 24 h, 10 µM | % | 60

---

# TEST TARGET: UniProtKB P27338
# TEST SUMMARY: Inhibition of recombinant human MAO-B expressed in baculovirus infected BTI insect cells assessed as reduction in formation of 4-quinolinol at 25 uM using kynuramine as substrate preincubated with substrate for 10 mins followed by enzyme addition and measured after 20 mins by fluorescence based microplate reader assay relative to control
ASSAY READOUT: inhibition at 25 µM (%)

MOLECULAR STRING | NUMERIC VALUE
CC(C)=CCC/C(C)=C/Cc1c(C)c(C=O)c(O)c(C/C=C(\C)CCC=C(C)C)c1O | 48.1
CC(C)=CCC/C(C)=C/Cc1c(C)cc(O)c(O)c1O | 88.7
COc1cc(C)c(C/C=C(\C)CC/C=C(\C)CCC=C(C)C)c(OC)c1OC | 34.9
CC(C)=CCC1=C(C)C(=O)C(O)=C(O)C1=O | 38.3
CC(C)=CCC/C(C)=C/CC/C(C)=C/Cc1c(O)cc(O)c(C(=O)O)c1C | 49.2
CC(C)=CCC/C(C)=C/Cc1c(O)cc(O)c(C=O)c1C | 77.4
COc1cc(C)c(C/C=C(\C)CC/C=C(\C)CCC=C(C)C)c(OC)c1 | 10.8
CC(C)=CCc1c(C)cc(O)c(O)c1O | 32.7
CC(C)=CCC/C(C)=C/CC/C(C)=C/Cc1c(O)cc(O)c(C=O)c1C | 91.2
CC(C)=CCC/C(C)=C/Cc1c(C)cc(O)cc1O | 30.7
CC(C)=CCC/C(C)=C/CC/C(C)=C/Cc1c(C)cc(O)c(O)c1O | 97.8
CC(C)=CCC/C(C)=C/CC/C(C)=C/Cc1c(C)cc(O)cc1O | 96.4
COc1c(C)c(CC=C(C)C)c(OC)c(OC)c1OC | 7.2
CC(C)=CCC/C(C)=C/Cc1c(O)cc(O)c(C(=O)O)c1C | 31.2
CC(C)=CCc1c(O)cc(O)c(C=O)c1C | 36.3

---

Some molecules, each annotated with its measured pIC50.
# TEST TARGET: Amine oxidase [flavin-containing] B (Homo sapiens, UniProt P27338)
# Sequence (P27338 whole entry): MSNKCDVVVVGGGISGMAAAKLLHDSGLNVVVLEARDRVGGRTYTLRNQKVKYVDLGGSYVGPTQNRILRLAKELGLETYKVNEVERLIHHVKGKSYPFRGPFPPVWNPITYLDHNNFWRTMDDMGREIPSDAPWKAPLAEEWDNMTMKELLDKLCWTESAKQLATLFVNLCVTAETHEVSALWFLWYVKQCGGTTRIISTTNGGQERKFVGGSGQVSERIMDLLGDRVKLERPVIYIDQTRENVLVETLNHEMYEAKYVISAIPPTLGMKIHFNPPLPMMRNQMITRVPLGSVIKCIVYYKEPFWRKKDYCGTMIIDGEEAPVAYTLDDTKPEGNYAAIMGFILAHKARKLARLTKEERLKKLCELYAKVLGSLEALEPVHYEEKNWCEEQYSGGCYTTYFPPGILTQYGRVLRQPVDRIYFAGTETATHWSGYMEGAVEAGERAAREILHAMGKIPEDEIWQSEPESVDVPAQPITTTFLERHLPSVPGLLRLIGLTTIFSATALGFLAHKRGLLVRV
# TEST SUMMARY: Inhibition of recombinant human MAO-B expressed in baculovirus infected BTI insect cells assessed as reduction in formation of 4-quinolinol using kynuramine as substrate preincubated with substrate for 10 mins followed by enzyme addition and measured after 20 mins by fluorescence based microplate reader assay
# APPLIED CONDITIONS: read-out: IC50
pIC50: −log10 of the molar value.

MOLECULAR STRING | pIC50
CC(C)=CCC/C(C)=C/Cc1c(O)cc(O)c(C=O)c1C | 4.71
CC(C)=CCC/C(C)=C/Cc1c(C)cc(O)c(O)c1O | 4.98
CC(C)=CCC/C(C)=C/CC/C(C)=C/Cc1c(O)cc(O)c(C(=O)O)c1C | 4.58
CC(C)=CCC/C(C)=C/CC/C(C)=C/CC1=C(C)C(=O)C(O)=C(O)C1=O | 5.89
CC(C)=CCC/C(C)=C/CC/C(C)=C/Cc1c(C)cc(O)cc1O | 5.04
CC(C)=CCC/C(C)=C/CC1=C(C)C(=O)C(O)=C(O)C1=O | 5.85
CC(C)=CCC/C(C)=C/CC/C(C)=C/Cc1c(O)cc(O)c(C=O)c1C | 5.64
CC(C)=CCC/C(C)=C/CC/C(C)=C/Cc1c(C)cc(O)c(O)c1O | 5.89
CC(C)=CCc1c(C)c(C=O)c(O)c(CC=C(C)C)c1O | 5.26

---

# TEST SUMMARY: Cytotoxicity against human SH-SY5Y cells assessed as cell viability at 5 uM measured after 24 hrs by MTT assay relative to control
# Type: cell-based
# APPLIED CONDITIONS: read-out: Activity

MOLECULAR STRING | viability at 24 h, 5 µM [%]
CC(C)=CCC/C(C)=C/CC/C(C)=C/Cc1c(C)cc(O)cc1O | 63

---

# TEST TARGET: UniProtKB P27338
# TEST SUMMARY: Inhibition of recombinant human MAO-B expressed in baculovirus infected BTI insect cells assessed as reduction in formation of 4-quinolinol at 25 uM using kynuramine as substrate preincubated with substrate for 10 mins followed by enzyme addition and measured after 20 mins by fluorescence based microplate reader assay relative to control
The label depends only on inhibition at 25 µM: 1.0 if it is at least 50%, 0.0 if it is smaller.

MOLECULAR STRING | TEST TARGET | CLASS ASSIGNMENT
CC(C)=CCc1c(O)cc(O)c(C(=O)O)c1C | UniProtKB P27338 | 0.0
COc1c(C)c(C/C=C(\C)CCC=C(C)C)c(OC)c(OC)c1OC | UniProtKB P27338 | 0.0
COc1cc(C)c(CC=C(C)C)c(OC)c1 | UniProtKB P27338 | 0.0
CC(C)=CCc1c(C)c(C=O)c(O)c(CC=C(C)C)c1O | UniProtKB P27338 | 1.0
CC(C)=CCC/C(C)=C/CC/C(C)=C/CC1=C(C)C(=O)C(O)=C(O)C1=O | UniProtKB P27338 | 1.0
COc1c(C)c(C/C=C(\C)CC/C=C(\C)CCC=C(C)C)c(OC)c(OC)c1OC | UniProtKB P27338 | 0.0
CC(C)=CCc1c(C)cc(O)cc1O | UniProtKB P27338 | 0.0
COc1cc(C)c(C/C=C(\C)CCC=C(C)C)c(OC)c1OC | UniProtKB P27338 | 0.0
COc1cc(C)c(CC=C(C)C)c(OC)c1OC | UniProtKB P27338 | 0.0
CC(C)=CCC/C(C)=C/CC1=C(C)C(=O)C(O)=C(O)C1=O | UniProtKB P27338 | 1.0
